system: SW-620 colon; test: NCI tumour cell line growth inhibition, 48 h
Below, each of the compounds is paired with its reported TGI value.
ASSAY_READOUT: TGI

- COC(=O)N/N=C/c1oc(-c2cccc([N+](=O)[O-])c2)c(-c2cccc([N+](=O)[O-])c2)c1[N+](=O)[O-]: > 100 µM
- COc1ccc(C2C(Cl)C(=O)N2NC(=O)Cc2ccccc2)cc1 (centres undefined): > 100 µM
- CCN(CC)Cc1cc(Nc2c3ccccc3nc3c2[nH]c2ccccc23)ccc1O: 3.43 µM
- COc1ccc(/C=C\c2cc(OC)c(OC)c(OC)c2)cc1OCC(=O)Nc1nc2ccc(C(F)(F)F)cc2s1: > 100 µM
- CC(C)(C)[C@H]1CO[C@]2(C)[C@@H]3C[C@@H]3C(=O)N12: > 100 µM
- O=C(O)c1cc2c(cn1)[nH]c1ccccc12: > 100 µM
- CC(=O)CCC[C@@H](C)[C@@H]1O[C@H]([C@@]2(C)CCC(=O)O2)C[C@H]2C(CSc3ccccc3)C(=O)O[C@@H]12 (some centres undefined): 28.8 µM
- N#C/C=C1\C=CC(O)C(O)C1OC1OC(CO)C(O)C(O)C1O (centres undefined): > 100 µM
- O=[N+]([O-])/C=C/c1c[nH]c2ccccc12: 57.5 µM
